Attribution: the SangsterLogP compilation

quantity-kind: logP

| compound | quantity-kind | observed-measurement |
| --- | --- | --- |
| CCCCC(CC)COC(=O)c1ccc(N(C)C)cc1 (stereo unspecified) | logP | 6.6 |

----------
assay-summary: method code SF-AS, from DOI: 10.1016/0378-5173(90)90042-3

| mol-smiles | logP |
| --- | --- |
| CCCCOC(=O)c1cc(=O)[nH]c(=O)[nH]1 | 1.33 |
| CC(C)OC(=O)c1cc(=O)[nH]c(=O)[nH]1 | 0.81 |
| CCCOC(=O)c1cc(=O)[nH]c(=O)[nH]1 | 1.1 |

----------
assay-summary: method code SF-HPLC, from DOI: 10.3109/14756366.2013.845817, PMID: 24156741
Answer No if logP is under 5, and Yes if it is 5 or more.

| compound | category |
| --- | --- |
| C#CCn1cc(C(=O)NC(CC(=O)NC2CCCC2)c2ccccc2)c(=O)c2cc(F)c(Cl)nc21 (configuration not stated) | Yes |
| C#CCn1cc(C(=O)NC(c2ccccc2)C(O)C(=O)Nc2ccccc2)c(=O)c2cccnc21 (configuration not stated) | No |
| C#CCn1cc(C(=O)NC(c2ccccc2)C(O)C(=O)Nc2ccccn2)c(=O)c2cccnc21 (configuration not stated) | No |
| C#CCn1cc(C(=O)NC(c2ccccc2)C(O)C(=O)Nc2ccccn2)c(=O)c2cc(F)c(Cl)nc21 (configuration not stated) | Yes |
| C#CCn1cc(C(=O)NC(CC(=O)Nc2ccccc2)c2ccccc2)c(=O)c2ccc(Cl)nc21 (configuration not stated) | Yes |
| C#CCn1cc(C(=O)NC(c2ccccc2)C(O)C(=O)NC2CCCC2)c(=O)c2cc(F)c(Cl)nc21 (configuration not stated) | Yes |
